The following molecules are shown together with reported EC50 values.
assay-target: human GPR119 (hGPR119) (Homo sapiens, UniProt Q8TDV5)
Sequence (Q8TDV5 1-335): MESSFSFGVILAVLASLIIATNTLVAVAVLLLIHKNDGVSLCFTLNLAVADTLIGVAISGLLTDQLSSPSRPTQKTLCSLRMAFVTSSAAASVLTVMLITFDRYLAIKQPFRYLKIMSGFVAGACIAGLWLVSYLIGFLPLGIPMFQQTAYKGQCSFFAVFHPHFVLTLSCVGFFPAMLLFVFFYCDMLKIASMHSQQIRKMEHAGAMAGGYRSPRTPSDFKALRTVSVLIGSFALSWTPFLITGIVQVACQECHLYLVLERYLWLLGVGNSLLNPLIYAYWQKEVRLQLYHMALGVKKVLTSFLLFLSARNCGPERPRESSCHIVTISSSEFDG
assay-explanation: cAMP accumulation assay (Cisbio cAMP Gs dynamic HTRF kit) in CHO-K1 cells stably expressing human GPR119
setup-conditions: 60 minutes at 37° C., 4-parameter fit

CCOc1cnc(N2CCC(CCCOc3ccc(CC(=O)N4CCN(C[C@H](O)[C@@H](O)[C@H](O)[C@H](O)CO)CC4)c(F)c3)CC2)nc1 = 100 to 1000 nM

Dear colleague, I am looking for the recorded EC50 of the following molecule: O=C(Cc1ccc(OCCCC2CCN(c3ncc(Cl)cn3)CC2)cc1F)N1CC2CC(C1)N2C(=O)CCCCS(=O)(=O)O
≤ 100 nM

Dear colleague, I am looking for the recorded EC50 of the following molecule: O=C(Cc1ccc(OCCCC2CCN(c3ncc(Cl)cn3)CC2)cc1F)N1CCC2(CCN2C[C@H](O)[C@H](O)[C@H](O)CO)C1 (stereo partly drawn)
≤ 100 nM
